Experiment: Antioxidant activity assessed as ferrous ion chelating activity after 30 mins by spectrophotometry
Type: functional

{"columns": ["Compound", "Readout qualifier", "EC50 / µM"],
 "data": [
  ["COc1ccc(C(=O)OCC2Oc3ccc([C@H]4Oc5cc(O)cc(O)c5C(=O)[C@@H]4O)cc3OC2c2ccc(O)c(OC)c2)cc1 (relative stereo)", "=", 73.3],
  ["COc1cc(C2Oc3cc([C@H]4Oc5cc(O)cc(O)c5C(=O)[C@@H]4O)ccc3OC2COC(=O)c2cc(N)cc([N+](=O)[O-])c2)ccc1O (stereo partly drawn)", ">", 300],
  ["COc1cc(C2Oc3cc([C@H]4Oc5cc(O)cc(O)c5C(=O)[C@@H]4O)ccc3OC2COC(=O)/C=C/c2ccc(Br)cc2)ccc1O (relative stereo)", "=", 88.9]
]}
